Values compiled from patent US7642354B2.

Biological target: hSK2 (Homo sapiens)
Assay: Assay for compound activity towards hSK channels (86Rb+ efflux)
Conditions: 86Rb+ efflux stimulated with calcium ionophore; drug 0.01 to 30 μM in EBSS; read-out: hSK2 Inhibitory Activity
pIC50: −log10 of the molar value.
readout-name: pIC50

[[record]]
mol = "Clc1ccc(-c2ccc(Nc3cncc(-c4ccccn4)n3)nc2)s1"
target_desc = "hSK2 (Homo sapiens)"
readout_name = "pIC50"
result = "6.00 to 7.30"

[[record]]
mol = "c1ccc(-c2cncc(Nc3ccc4ccccc4n3)n2)nc1"
target_desc = "hSK2 (Homo sapiens)"
readout_name = "pIC50"
result = "4.52 to 5.52"

[[record]]
mol = "CN1CCN(c2ccc(Nc3cncc(-c4ccccn4)n3)nc2)CC1"
target_desc = "hSK2 (Homo sapiens)"
readout_name = "pIC50"
result = "5.52 to 6.00"

[[record]]
mol = "c1ccc(-c2cncc(Nc3nccs3)n2)nc1"
target_desc = "hSK2 (Homo sapiens)"
readout_name = "pIC50"
result = "4.52 to 5.52"

[[record]]
mol = "FC(F)(F)c1cnc(Nc2cncc(-c3ccccn3)n2)c(Cl)c1"
target_desc = "hSK2 (Homo sapiens)"
readout_name = "pIC50"
result = "4.52 to 5.52"

[[record]]
mol = "c1ccc(-c2ccc(Nc3cncc(-c4ccccn4)n3)nc2)cc1"
target_desc = "hSK2 (Homo sapiens)"
readout_name = "pIC50"
result = "6.00 to 7.30"

[[record]]
mol = "[O-][n+]1ccccc1Nc1cncc(-c2ccccn2)n1"
target_desc = "hSK2 (Homo sapiens)"
readout_name = "pIC50"
result = "4.52 to 5.52"

[[record]]
mol = "Cc1cnn(-c2cncc(Nc3ccc(N4CCCC4)cn3)n2)c1"
target_desc = "hSK2 (Homo sapiens)"
readout_name = "pIC50"
result = "6.00 to 7.30"


Entry under review: Brc1ccc(Nc2cncc(-c3ccccn3)n2)nc1 . Reported pIC50?
6.00 to 7.30

c1ccc(-c2ccc(Nc3cncc(-c4cc(N5CCCC5)ccn4)n3)nc2)cc1 ?
4.52 to 5.52

c1ccc(-c2cncc(Nc3cnccn3)n2)nc1 ?
6.00 to 7.30

CCOC(=O)c1cnn(-c2ccccc2)c1Nc1cncc(-c2ccccn2)n1 ?
4.52 to 5.52

COc1cccc(-c2cncc(Nc3ccccn3)n2)n1 ?
6.00 to 7.30

O=[N+]([O-])c1ccc(Nc2cncc(-c3ccccn3)n2)nc1 ?
4.52 to 5.52

====

Readings of IC50 for the listed molecules
Molecular target: hSK2 (Homo sapiens, UniProt Q9H2S1)
Experiment: Assay for compound activity towards hSK channels (86Rb+ efflux)
Details: 86Rb+ efflux stimulated with calcium ionophore; drug 0.01 to 30 μM in EBSS; read-out: hSK2 Inhibitory Activity

Example entries begin here.
[[record]]
mol = "c1ccc(-c2cncc(Nc3ccc(-c4ccco4)cn3)n2)nc1"
readout_name = "IC50"
result = "0.05 to 1 µM"

[[record]]
mol = "Brc1ccc(Nc2cnc(Br)c(-c3ccccn3)n2)nc1"
readout_name = "IC50"
result = "3 to 30 µM"

[[record]]
mol = "Clc1ccc(Nc2cncc(-c3ccccn3)n2)nc1"
readout_name = "IC50"
result = "0.05 to 1 µM"


Entry under review: c1ccc(-c2cncc(Nc3ccc(-c4cccnc4)cn3)n2)nc1 . Reported IC50?
0.05 to 1 µM

c1ccc(Nc2cncc(-c3cc4ccccc4o3)n2)nc1 ?
3 to 30 µM

CC1CCN(c2ccc(Nc3cncc(-c4ccccn4)n3)nc2)CC1 ?
0.05 to 1 µM

Fc1cccc(-c2ccc(Nc3cncc(-c4ccccn4)n3)nc2)c1 ?
0.05 to 1 µM

Brc1ncc(-c2ccccn2)nc1Nc1ccccn1 ?
1 to 3 µM

c1ccc(-c2cncc(Nc3nc[nH]n3)n2)nc1 ?
3 to 30 µM

====

Target: hSK2 (Homo sapiens, UniProt Q9H2S1)
Experiment: Assay for compound activity towards hSK channels (86Rb+ efflux)
Conditions: 86Rb+ efflux stimulated with calcium ionophore; drug 0.01 to 30 μM in EBSS; read-out: hSK2 Inhibitory Activity
readout-name: IC50

Example entries begin here.
[[record]]
mol = "CC(=O)c1sc(Nc2cncc(-c3ccccn3)n2)nc1C"
result = "3 to 30 µM"

[[record]]
mol = "c1ccc(COc2cccnc2Nc2cncc(-c3ccccn3)n2)cc1"
result = "3 to 30 µM"

[[record]]
mol = "CCCCCOc1cccnc1Nc1cncc(-c2ccccn2)n1"
result = "3 to 30 µM"

[[record]]
mol = "CN1CCN(c2ccc(Nc3cncc(-c4ccccn4)n3)nc2)C(=O)C1"
result = "3 to 30 µM"

[[record]]
mol = "Oc1cccnc1Nc1cncc(-c2ccccn2)n1"
result = "3 to 30 µM"


I'm curious: which IC50 was measured for CCOC(=O)c1c[nH]nc1Nc1cncc(-c2ccccn2)n1 tested on hSK2 (Homo sapiens, UniProt Q9H2S1)?
3 to 30 µM

====

Target: hSK2 (Homo sapiens, UniProt Q9H2S1)
Assay: Assay for compound activity towards hSK channels (86Rb+ efflux)
Conditions: 86Rb+ efflux stimulated with calcium ionophore; drug 0.01 to 30 μM in EBSS; read-out: hSK2 Inhibitory Activity
readout-name: IC50

Example entries begin here.
[[record]]
mol = "c1ccc(-c2cncc(Nc3cc(-c4cccs4)n[nH]3)n2)nc1"
target_desc = "hSK2 (Homo sapiens, UniProt Q9H2S1)"
result = "3 to 30 µM"

[[record]]
mol = "Cc1nnc(Nc2cncc(-c3ccccn3)n2)s1"
target_desc = "hSK2 (Homo sapiens, UniProt Q9H2S1)"
result = "3 to 30 µM"

[[record]]
mol = "NC(=O)c1ncc(-c2ccccn2)nc1Nc1ccccn1"
target_desc = "hSK2 (Homo sapiens, UniProt Q9H2S1)"
result = "3 to 30 µM"

[[record]]
mol = "c1ccc(-c2csc(Nc3cncc(-c4ccccn4)n3)n2)cc1"
target_desc = "hSK2 (Homo sapiens, UniProt Q9H2S1)"
result = "3 to 30 µM"

[[record]]
mol = "COc1cccc(-c2cncc(Nc3ccc(Cl)cn3)n2)n1"
target_desc = "hSK2 (Homo sapiens, UniProt Q9H2S1)"
result = "3 to 30 µM"


Entry under review: CCOC(=O)c1sc(Nc2cncc(-c3ccccn3)n2)nc1-c1ccccc1 . Reported IC50?
3 to 30 µM

Fc1cccc(Nc2cncc(-c3ccccn3)n2)n1 ?
1 to 3 µM

Cc1ccnc(-c2cncc(Nc3ccccn3)n2)c1 ?
0.05 to 1 µM

====

Target: hSK2 (Homo sapiens)
Test: Assay for compound activity towards hSK channels (86Rb+ efflux)
Settings: 86Rb+ efflux stimulated with calcium ionophore; drug 0.01 to 30 μM in EBSS; read-out: hSK2 Inhibitory Activity
readout-name: IC50

Example entries begin here.
[[record]]
mol = "c1ccc(Nc2cncc(-c3ccccn3)n2)nc1"
target_desc = "hSK2 (Homo sapiens)"
result = "< 50 nM"

[[record]]
mol = "c1ccc(Nc2cncc(-c3cc(N4CCCC4)ccn3)n2)nc1"
target_desc = "hSK2 (Homo sapiens)"
result = "50 to 1000 nM"


Entry under review: COc1ccccc1-c1ccc(Nc2cncc(-c3ccccn3)n2)nc1 . Reported IC50?
50 to 1000 nM

COc1cccc(-c2cncc(-c3cccc(OC)n3)n2)n1 ?
3000 to 30000 nM

c1ccc(-c2cncc(Nc3nccnn3)n2)nc1 ?
3000 to 30000 nM

Cc1ccnc(Nc2cncc(-c3ccccn3)n2)c1 ?
< 50 nM

====

Readings of IC50 for the listed molecules
Target: UniProtKB Q9H2S1
Experiment: Assay for compound activity towards hSK channels (86Rb+ efflux)
Format: cell-based
Details: 86Rb+ efflux stimulated with calcium ionophore; drug 0.01 to 30 μM in EBSS; read-out: hSK2 Inhibitory Activity

Example entries begin here.
[[record]]
mol = "c1ccc(-c2cncc(Nc3ncccn3)n2)nc1"
result = "3 to 30 µM"

[[record]]
mol = "CN(C)c1ccc(-c2ccc(Nc3cncc(-c4ccccn4)n3)nc2)cc1"
result = "0.05 to 1 µM"


Entry under review: c1ccc(-c2cncc(Nc3cc(-c4ccco4)n[nH]3)n2)nc1 . Reported IC50?
3 to 30 µM

COCCN(C)c1ccc(Nc2cncc(-c3ccccn3)n2)nc1 ?
< 0.05 µM

COc1cc(OC)nc(Nc2cncc(-c3ccccn3)n2)n1 ?
3 to 30 µM

Cc1ccc(-c2cncc(Nc3ccccn3)n2)nc1 ?
0.05 to 1 µM

====

Readings of IC50 for the listed compounds
Target: hSK2 (Homo sapiens, UniProt Q9H2S1)
Test: Assay for compound activity towards hSK channels (86Rb+ efflux)
Details: 86Rb+ efflux stimulated with calcium ionophore; drug 0.01 to 30 μM in EBSS; read-out: hSK2 Inhibitory Activity

[[record]]
mol = "c1ccc(-c2cncc(Nc3ccc(-c4cccs4)cn3)n2)nc1"
target_desc = "hSK2 (Homo sapiens, UniProt Q9H2S1)"
result = "50 to 1000 nM"


Entry under review: O=C(c1ccccc1)c1nccnc1Nc1cncc(-c2ccccn2)n1 . Reported IC50?
3000 to 30000 nM

c1ccc(-c2ccc(Nc3cncc(-c4nccs4)n3)nc2)cc1 ?
3000 to 30000 nM

Cc1ccnc(Nc2cncc(-c3cc(N4CCCC4)ccn3)n2)c1 ?
50 to 1000 nM

Cc1ccc(-c2ccc(Nc3cncc(-c4ccccn4)n3)nc2)o1 ?
50 to 1000 nM
